// data source = ChEMBL document CHEMBL5543127

This listing pairs compounds with measured MIC.
Tested on: Bacillus pumilus
assayOverview: Anti-microbial activity against Bacillus pumilus CMCC63202 incubated for 20 hrs By CLSI based micro-dilution method
Type: functional

COc1ccc(OCCCCC(=O)NNc2nc3ccccc3o2)cc1    > 512 µg/mL

The compound identified as COc1ccc(OCCCC(=O)NNc2nc3ccccc3o2)cc1 registered its MIC at 512 µg/mL

Record Cn1/c(=N/NC(=O)c2ccccc2F)sc2ccccc21 , field MIC: > 512 µg/mL

What the record says about Brc1ccccc1/C=N/Nc1nc2ccccc2o1 : MIC is > 512 µg/mL

Form field MIC, entry CCCCCCCCC(=O)N/N=c1\sc2ccccc2n1C : > 512 µg/mL

Query O=C1C=C(Br)/C(=C\Br)O1 yields MIC of 256 µg/mL

Value of MIC reported for the compound Cc1cccc2sc(NNC(=O)CCCCOc3ccc(Cl)cc3)nc12 is 512 µg/mL

get_value(item= O=C(CCCCCOc1ccc(Cl)cc1)NNc1nc2ccccc2o1 , readout=MIC) returns 256 µg/mL

Record CCCCCCCCCC(=O)N/N=c1\sc2ccccc2n1C , field MIC: > 512 µg/mL

* * *

Below, each of the compounds is paired with its reported MIC value.
Test system: Bacillus pumilus
assayOverview: Anti-microbial activity against Bacillus pumilus CMCC63202 incubated for 20 hrs By CLSI based micro-dilution method
Format: functional

CCCCCC(=O)N/N=c1\sc2ccccc2n1C    > 512 µg/mL
CCCCCCCC(=O)N/N=c1\sc2ccccc2n1C    > 512 µg/mL
COc1ccc(/C=N/Nc2nc3ccccc3o2)cc1OC    256 µg/mL
Clc1ccc(/C=N/Nc2nc3ccccc3o2)cc1Cl    > 512 µg/mL

Lookup result for O=C(CCCCOc1ccc(F)cc1)NNc1nc2ccccc2o1 ; measured MIC: > 512 µg/mL

Value of MIC reported for the compound Cc1cccc(C(=O)N/N=c2\sc3ccccc3n2C)c1 is > 512 µg/mL
